Target: MDM2-p53 interaction (Homo sapiens (Human), UniProt Q00987)
Sequence (Q00987 whole entry): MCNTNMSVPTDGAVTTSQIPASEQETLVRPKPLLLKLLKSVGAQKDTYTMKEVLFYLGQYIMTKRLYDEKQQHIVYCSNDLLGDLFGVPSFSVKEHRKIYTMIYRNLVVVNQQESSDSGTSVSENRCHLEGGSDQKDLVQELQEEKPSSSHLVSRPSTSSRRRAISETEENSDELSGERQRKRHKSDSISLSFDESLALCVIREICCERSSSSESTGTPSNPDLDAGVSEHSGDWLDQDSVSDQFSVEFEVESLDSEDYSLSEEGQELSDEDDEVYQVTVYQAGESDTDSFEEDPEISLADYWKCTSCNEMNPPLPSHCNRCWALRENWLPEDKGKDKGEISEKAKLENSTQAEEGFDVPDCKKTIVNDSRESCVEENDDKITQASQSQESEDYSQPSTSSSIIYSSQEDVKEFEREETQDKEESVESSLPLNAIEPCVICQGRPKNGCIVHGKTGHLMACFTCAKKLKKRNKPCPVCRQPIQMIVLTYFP
Conditions: read-out: MDM2 % inhibition @0.0010
parameter-measured: inhibition at 0.001 µM (%)

A selection of reference data follows.
molecule | endpoint-unit | inhibition at 0.001 µM
CCC(O)(c1cc(F)c2c(c1)C(=O)N(Cc1ncc(Cl)cn1)[C@@]2(OCC1(C(N)=O)CC1)c1ccc(Cl)cc1)c1cn(C)cn1 (stereo partly shown) [Example 486] | % | 59
CCC(O)(c1cc(F)c2c(c1)C(=O)N(Cc1ncc(Cl)cc1O)[C@@]2(O[C@H]1C[C@@H](O)C1)c1ccc(Cl)cc1)c1cn(C)cn1 (single isomer, unassigned) [Example 487] | % | 59
CC[C@@](O)(c1cc(F)c2c(c1)C(=O)N(Cc1ncc(Cl)cc1O)[C@@]2(O[C@H]1CCOC1)c1ccc(Cl)cc1)C1CCN(C)CC1 [Example 568] | % | 76
CCC(O)(c1cc(F)c2c(c1)C(=O)N(Cc1ncc(Cl)cn1)[C@@]2(OC)c1ccc(Cl)cc1)C1(F)CCN(C)CC1 (single isomer, unassigned) [Example 563] | % | 76
CCC(O)(c1cc(F)c2c(c1)C(=O)N(Cc1ncc(Cl)cn1)[C@@]2(OCCO)c1ccc(Cl)cc1)C1(F)CCN(C)CC1 (single isomer, unassigned) [Example 565] | % | 65

A = CCC(O)(c1cc(F)c2c(c1)C(=O)N(Cc1ncc(Cl)cn1)[C@@]2(O[C@H]1C[C@@H](O)C1)c1ccc(Cl)cc1)C1(F)CCN(C)CC1 (single isomer, unassigned) [Example 570]
B = CCC(O)(c1cc(F)c2c(c1)C(=O)N(Cc1ncc(C#N)cn1)[C@@]2(OCC1(C#N)CC1)c1ccc(Cl)cc1)C1(F)CCN(C)CC1 (single isomer, unassigned) [Example 574]
Between A and B , whose recorded inhibition at 0.001 µM is greater? Label of pick, please. A
